Hey, just so you know, these numbers are from the nanobody polyreactivity screen of Harvey et al. (2022).

Assay: yeast display, Sf9 membrane polyspecificity reagent, FACS + sequencing; frameworks hold sequencing errors

{"RESIDUE_SEQUENCE": "QVKLVETGGGLVQAGGSLRLSCAASGFIFYKYAMGWYRQAPGKERELVASITSGGITNYADSVKGRFTISRDNAKNTVYLQMNSLKPVDTAVYYCNVRWYSRWLITTDYNYWGQGTQVTVSS", "polyreactivity (PSR sort gate)": "high polyreactivity"}
{"RESIDUE_SEQUENCE": "QVQRVESGGGLVQAGGSLRLSCDASGFTFAFYAMGWYRQAPGKERELVAAITGSGGSTYYADSVKGRFTISRDNAKNTVYLQMNRLKPEDTAVYYCNTYHQFSYDYWGQGTQVTVSS", "polyreactivity (PSR sort gate)": "high polyreactivity"}

###

Assay: yeast display, Sf9 membrane polyspecificity reagent, FACS + sequencing; frameworks hold sequencing errors
REPORTED_ENDPOINT: polyreactivity (PSR sort gate)

{"RESIDUE_SEQUENCE": "QVHLVESGGGLLQAGGSLRLSSAASGSTFPFNAMGWYRPAPGKERELVAAIDDNGGTTYYADSVKGRFTISRDNAKNTFYLQMISLKPEDPAVYYCAAEVDTVRDCVQGMDYCGQGTQVTVSS", "polyreactivity (PSR sort gate)": "low polyreactivity"}
{"RESIDUE_SEQUENCE": "QVQLVESGGGLVQAGGSLRLSCAASGRTFRWYAMGWYRQAPGKERELVAAITSDGSTYYADSVKGRFTISRDNAKNTVYLQMNSLKPEDTAVYYCNAAGRYAFPFGYNYWGQGTQVTVSS", "polyreactivity (PSR sort gate)": "high polyreactivity"}
{"RESIDUE_SEQUENCE": "QVQLVESGGGLVQAGGSLRLSCAASGSTFGFNVMGWYRQAPGKERELVAVITSDGNTYYADSVKGRFTISRDNAKNTVYLQMNSLKPEDTAVYYCAVSELGTPYGYWGQGTQVTVSS", "polyreactivity (PSR sort gate)": "low polyreactivity"}
{"RESIDUE_SEQUENCE": "QVQLVESGGGLVQAGGSLRLSCAASGSTFDYYTIGWYRQAPGKERELVAAISSSGGSTYYADSVKGRFTISRDNAKNTVYLQMNSLKPEDTAVYYCAADPSPYGDEYDYWGQGTQVTVSS", "polyreactivity (PSR sort gate)": "low polyreactivity"}

Okay, here is my list. What is polyreactivity (PSR sort gate) for each of these?
1. QVHLVESGGGLLQAGGILSLSCAASGITIIVYVMGWYRQAPGKERELVATITYDDSTYADSVKGRFTISRDNAKNTVYFQMNSLKPEDTAVYYDYWGQGTQVTVSS
2. QVQLVESGGGLVQAGGSLRLSCAASGIFLGYAMGWYRQAPGKERELVAGISSGGGTYYADSVKGRFTISRDNAKNTVYLQMNSLKPEDTAVYYCNAASQYTFDSSFDYWGQGTQVTVSS
3. QVQLVESGGGLVQAGGRLRLSCAASGYIFYYNAIGWYRQAPGKERELVAAITSDDSTYYADSVKGRFTISRDNAKNTVYLQMNSLKPEDTAVYYCNAVRYGHWYDYWGQGTQVTVSS
4. QVQLVESGGGLVQAGGSLRLSCAASGITFYIYAMGWYRQAPGKERELVATISWSDGRTYYADSVKGRFTISRDNAKNTVYLQINSLKPEDTAVYYCAADWWYYQFDYEYWGQGTQVTVSS
5. QVQLGESGGGLVQAGGSLRLSCAASGSIFSKYAKGSYRQAPGKERELVAAITMNGGSTYYADSVKGRFTISRDNAKNTVYFQMNSLKPEDTAVYYCSKSERPWWGYYYQFDYWGQGTQVTVSS
6. QVQLVESGGGLVQAGGSLRLSCAASGRIILLYTMGWYRQAPGKERELVAAISRSGGITYADSVKGRFTISRDNAKNTVYLQMNSLKPEDTAVYYCAKGGSSHAKGHFDYWGQGTQVTVSS
7. QVQLVESGGGLVQAGGSLRLSCAASGRIFKSYAMGWYRQAPGKERELVAAISRGGRTNYADSVKGRFTISRDNAKNTVYLQMNSLKPEVTAVYYCAARFVVQGHSSPYDYWGQGTQVTVSS

Output:
1. low polyreactivity
2. low polyreactivity
3. low polyreactivity
4. low polyreactivity
5. low polyreactivity
6. low polyreactivity
7. high polyreactivity
